- experimentalProtocol: growth modulation of vineyard yeast isolate – strain RM11-1a, OD600, basal, 24 h, primary screen (AID 1177);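 further: cultures grown under basal conditions with no added stressor; test concentration not given here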
- setupConditions: S. cerevisiae RM11-1a growth, OD600, 24 h; higher = more signal, called active from +8 up or from −8 down
For each of the compounds below, state its z-score.
Answers are plain numbers.

Below: 2 compounds and their reported z-score.
compound	quantityName	observed
CN1C(=O)C2C(C3CC3)C=C3CN(Cc4cccc(Cl)c4)[C@@H]([C@@H](O)Cc4ccccc4)C3C2C1=O (stereo partly drawn)	z-score	0.248
COc1ccc(NN2C(C(O)c3ccc(I)cc3)C=CC3C(=O)N(C4CCCCC4)C(=O)C32)cc1 (stereo not drawn)	z-score	0.475

Okay, next one:
Input C=CCOC(=O)[C@@H]1[C@H]2C(=O)O[C@H](c3ccccc3)[C@H](c3ccccc3)N2[C@H](c2ccc(OCCOC(=O)[C@H]3C[C@H]4C(=O)NCC(=O)N4[C@H]3c3cccc(OCCO)c3)cc2)[C@@]12C(=O)Nc1ccc(I)cc12 . Output z-score: 1.08

Data origin, for the record: PubChem BioAssay
